Value source: ChEMBL document CHEMBL1129499

Reported delta Log P values for the following molecules.
Assay: Partition coefficient by standard shake-flask techniquesat 37 C, using octanol and cyclohexane
Format: physicochemical

The examples below pair each entry with its known result.
>>> measvalue("Cc1[nH]c([C@@H](Cc2cn(C)c3ccccc23)NC(=O)[C@H](CC(C)C)NC(=O)N(C)C2CCCCC2)nc1C(=O)O")
5.4
>>> measvalue("Cc1[nH]c([C@@H](Cc2cn(C)c3ccccc23)NC(=O)[C@@H](CC(=O)NC2CCCCC2)CC(C)C)nc1C(=O)O")
"> 6.2"

Consider the record given below.
Task item: Which delta Log P value belongs to `Cc1[nH]c([C@@H](Cc2cn(C)c3ccccc23)NC(=O)[C@H](CC(C)C)N(C)C(=O)NC2CCCCC2)nc1C(=O)O` ?
Reply: > 6

----------
Reported delta Log P values for the following compounds.
Assay: Partition coefficient by standard shake-flask techniquesat 37 C, using octanol and cyclohexane
Type: physicochemical
Give only the figure.

Task item: Which delta Log P value belongs to `Cc1[nH]c([C@@H](Cc2cn(C)c3ccccc23)NC(=O)[C@H](CC(C)C)NC(=O)CC2CCCCC2)nc1C(=O)O` ?
Reply: 5.66

Task item: Can you handle `Cc1oc([C@@H](Cc2cn(C)c3ccccc23)NC(=O)[C@H](CC(C)C)NC(=O)N(C)C2CCCCC2)nc1C(=O)O` next?
Reply: 4.05

Task item: Can you handle `Cc1oc([C@@H](Cc2cn(C)c3ccccc23)NC(=O)[C@H](CC(C)C)NC(=O)OC2CCCCC2)nc1C(=O)O` next?
Reply: 4.66

----------
Test: Total absorption was estimated by area under curve (AUC) after intraduodenal administration in rat
Parameters: concentration or dose not given beside the values
Conditions: in vivo, id
Reported AUC values for the following compounds.
Write the value in ng·h/mL as a bare number.

The examples below pair each entry with its known result.
>>> measvalue("Cc1oc([C@@H](Cc2cn(C)c3ccccc23)NC(=O)[C@H](CC(C)C)OC(=O)N(C)C2CCCCC2)nc1C(=O)O")
1840
>>> measvalue("Cc1oc([C@@H](Cc2cn(C)c3ccccc23)NC(=O)[C@H](CC(C)C)OC(=O)NC2CCCCC2)nc1C(=O)O")
815
>>> measvalue("Cc1oc([C@@H](Cc2cn(C)c3ccccc23)NC(=O)[C@H](CC(C)C)OC(=O)OC2CCCCC2)nc1C(=O)O")
1760

Consider the record given below.
Task item: Which AUC value belongs to `Cc1oc([C@@H](Cc2cn(C)c3ccccc23)NC(=O)[C@H](CC(C)C)NC(=O)NC2CCCCC2)nc1C(=O)O` ?
Reply: 193

----------
Target: Endothelin receptor type B (Homo sapiens)
Sequence (P24530 whole entry): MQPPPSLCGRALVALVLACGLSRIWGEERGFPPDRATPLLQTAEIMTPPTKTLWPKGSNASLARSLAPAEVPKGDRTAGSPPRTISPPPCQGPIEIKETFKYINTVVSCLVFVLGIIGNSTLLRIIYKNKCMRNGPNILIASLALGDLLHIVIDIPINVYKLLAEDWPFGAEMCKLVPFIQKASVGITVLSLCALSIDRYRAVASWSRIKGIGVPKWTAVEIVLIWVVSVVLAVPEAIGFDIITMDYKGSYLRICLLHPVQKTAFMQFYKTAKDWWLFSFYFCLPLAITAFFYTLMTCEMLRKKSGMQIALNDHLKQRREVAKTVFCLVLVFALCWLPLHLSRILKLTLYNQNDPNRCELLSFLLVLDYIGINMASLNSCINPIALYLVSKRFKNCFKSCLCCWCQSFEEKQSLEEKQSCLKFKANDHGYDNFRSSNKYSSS
pIC50: −log10 of the molar value.
outcomeMeasure: pIC50

>>> measvalue("Cc1oc([C@@H](Cc2cn(C)c3ccccc23)NC(=O)[C@@H](CC(=O)NC2CCCCC2)CC(C)C)nc1C(=O)O")
"< 4.00"
>>> measvalue("Cc1[nH]c([C@@H](Cc2cn(C)c3ccccc23)NC(=O)[C@H](CC(C)C)NC(=O)CC2CCCCC2)nc1C(=O)O")
"< 4.05"
>>> measvalue("Cc1oc([C@@H](Cc2cn(C)c3ccccc23)NC(=O)[C@H](CC(C)C)N(C)C(=O)NC2CCCCC2)nc1C(=O)O")
"< 4.00"
>>> measvalue("Cc1[nH]c([C@@H](Cc2cn(C)c3ccccc23)NC(=O)[C@H](CC(C)C)NC(=O)NC2CCCCC2)nc1C(=O)O")
4.47
>>> measvalue("Cc1oc([C@@H](Cc2cn(C)c3ccccc23)NC(=O)[C@H](CC(C)C)NC(=O)CC2CCCCC2)nc1C(=O)O")
"< 4.00"

Task item: Which pIC50 value belongs to `Cc1[nH]c([C@@H](Cc2cn(C)c3ccccc23)NC(=O)[C@H](CC(C)C)N(C)C(=O)NC2CCCCC2)nc1C(=O)O` ?
Reply: < 4.00

----------
Reported delta Log P values for the following molecules.
Experiment: Partition coefficient by standard shake-flask techniquesat 37 C, using octanol and cyclohexane
Assay type: physicochemical

The examples below pair each entry with its known result.
>>> measvalue("CCCN(Cc1ccc(-c2ccccc2-c2nnn[nH]2)cc1)c1ncccc1C(=O)O")
2.45
>>> measvalue("Cc1oc([C@@H](Cc2cn(C)c3ccccc23)NC(=O)[C@H](CC(C)C)OC(=O)NC2CCCCC2)nc1C(=O)O")
4.04
>>> measvalue("Cc1oc([C@@H](Cc2cn(C)c3ccccc23)NC(=O)[C@@H](CC(=O)NC2CCCCC2)CC(C)C)nc1C(=O)O")
3.82

Task item: Which delta Log P value belongs to `Cc1[nH]c([C@@H](Cc2cn(C)c3ccccc23)NC(=O)[C@H](CC(C)C)NC(=O)OC2CCCCC2)nc1C(=O)O` ?
Reply: > 6.2

Task item: Can you handle `Cc1oc([C@@H](Cc2cn(C)c3ccccc23)NC(=O)[C@H](CC(C)C)OC(=O)N(C)C2CCCCC2)nc1C(=O)O` next?
Reply: 3.82

Task item: Can you handle `Cc1oc([C@@H](Cc2cn(C)c3ccccc23)NC(=O)[C@H](CC(C)C)OC(=O)OC2CCCCC2)nc1C(=O)O` next?
Reply: 3.71

Task item: Can you handle `Cc1oc([C@@H](Cc2cn(C)c3ccccc23)NC(=O)[C@H](CC(C)C)NC(=O)CC2CCCCC2)nc1C(=O)O` next?
Reply: 3.78

Task item: Can you handle `Cc1[nH]c([C@@H](Cc2cn(C)c3ccccc23)NC(=O)[C@H](CC(C)C)NC(=O)NC2CCCCC2)nc1C(=O)O` next?
Reply: 5.92

Task item: Can you handle Cn1c(=O)c2[nH]cnc2n(C)c1=O.O [THEOPHYLLINE] next?
Reply: 1.53

Task item: Can you handle `Cc1[nH]c([C@@H](Cc2cn(C)c3ccccc23)NC(=O)[C@H](CC(C)C)OC(=O)NC2CCCCC2)nc1C(=O)O` next?
Reply: > 6.1

Task item: Can you handle `Cc1oc([C@@H](Cc2cn(C)c3ccccc23)NC(=O)[C@H](CC(C)C)NC(=O)NC2CCCCC2)nc1C(=O)O` next?
Reply: > 6.1

Task item: Can you handle `Cc1oc([C@@H](Cc2cn(C)c3ccccc23)NC(=O)[C@H](CC(C)C)N(C)C(=O)NC2CCCCC2)nc1C(=O)O` next?
Reply: 4.59

Task item: Can you handle `COc1cccc(Oc2c(NS(=O)(=O)c3ccc(C(C)(C)C)cc3)ncnc2OCCO)c1` next?
Reply: 2.37
